Molecular target: ScLsb1
Assay: SPOT peptide array binding signal intensity (averaged, normalized) (arbitrary units (background-subtracted, floor 0; scale differs between SH3 domains)); higher = stronger binding of the SH3 domain to the peptide
Please go through the items and note down their SPOT peptide array binding signal intensity.

Look over these answered cases.
BINDER	REPORTED
KKIRLIFTYPSTVGR	32
FPPKRKPLLRPQRSD	27.8
IFLRISINFPLNYPN	12.8
RTRRRPPPPPIPSTQ	492
TTAPALPSLPPPPLL	≤ 0
TKPTPPPKPSHLKPK	0.5

Provide each entry's SPOT peptide array binding signal intensity from the list below.
1. DTFLPPPPPPPSNFE
2. RRRIAYPFYPFKKLG
3. GPPPPLPPPLFPSSS

Return:
1. ≤ 0
2. 3.5
3. 288

Provide each entry's SPOT peptide array binding signal intensity from the list below.
1. KFIPSRPAPKPPSSA
2. PLRRTVMSLPGNHDI
3. TPEIPPPLPPKIMVH
4. GKKVRPLLVLLLSRA
5. QTMRQAPKRPDADVA

Return:
1. 51.8
2. 14.5
3. 109
4. ≤ 0
5. 78

Taken from the supplement of paper PMC4466140.
